Cited source for all entries: ChEMBL document CHEMBL1777707

EXPERIMENTAL_TARGET: Peroxisome proliferator-activated receptor gamma (Homo sapiens, UniProt P37231)
Sequence (P37231 whole entry, the tested form may be a part): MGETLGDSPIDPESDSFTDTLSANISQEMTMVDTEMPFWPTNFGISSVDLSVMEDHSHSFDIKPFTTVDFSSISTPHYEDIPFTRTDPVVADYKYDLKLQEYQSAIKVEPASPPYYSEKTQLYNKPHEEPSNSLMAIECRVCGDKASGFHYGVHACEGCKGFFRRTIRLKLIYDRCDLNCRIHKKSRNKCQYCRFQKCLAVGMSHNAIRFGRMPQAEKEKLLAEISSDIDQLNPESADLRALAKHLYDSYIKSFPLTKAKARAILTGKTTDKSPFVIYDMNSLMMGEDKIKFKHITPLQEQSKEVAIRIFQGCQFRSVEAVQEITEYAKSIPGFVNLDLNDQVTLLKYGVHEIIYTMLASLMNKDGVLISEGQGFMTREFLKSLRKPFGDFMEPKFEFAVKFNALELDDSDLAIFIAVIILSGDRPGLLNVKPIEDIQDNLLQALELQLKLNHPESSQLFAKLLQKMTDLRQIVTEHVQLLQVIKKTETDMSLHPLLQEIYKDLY
ASSAY_PROCEDURE: Agonist activity at Gal4-fussed PPARgamma expressed in human HEK293 cells by reporter gene assay
Each entry below carries its recorded EC50.
MEASURE_NAME: EC50 (nM)

> print(dat)
                                   compound                       experimental.target  measure.name  unit.name  value.modifier  endpoint.value
1  CCC(Cc1ccc(OC)c(CNC(=O)c2cccc(-c3ccccc3)c2)c1)C(=O)O (racemic)  Peroxisome proliferator-activated receptor gamma (Homo sapiens, UniProt P37231)          EC50         nM               =             710
2  CCC(Cc1ccc(OC)c(CNC(=O)c2ccc(Oc3ccccc3)cc2)c1)C(=O)O (racemic)  Peroxisome proliferator-activated receptor gamma (Homo sapiens, UniProt P37231)          EC50         nM               =             820
3  CC[C@@H](Cc1ccc(OC)c(CNC(=O)c2ccc(Oc3ccc(Cl)cc3)cc2)c1)C(=O)O  Peroxisome proliferator-activated receptor gamma (Homo sapiens, UniProt P37231)          EC50         nM               =             830
4  CCC(Cc1ccc(OC)c(CNC(=O)c2ccccc2)c1)C(=O)O (racemic)  Peroxisome proliferator-activated receptor gamma (Homo sapiens, UniProt P37231)          EC50         nM               >           10000
5  CCC(Cc1ccc(OC)c(CNC(=O)c2cccc(Oc3ccccc3)c2)c1)C(=O)O (racemic)  Peroxisome proliferator-activated receptor gamma (Homo sapiens, UniProt P37231)          EC50         nM               =            4600
6  CC[C@@H](Cc1ccc(OC)c(CNC(=O)c2ccc(Oc3ccc(F)cc3)cc2)c1)C(=O)O  Peroxisome proliferator-activated receptor gamma (Homo sapiens, UniProt P37231)          EC50         nM               =             920
7  CCC(Cc1ccc(OC)c(CNC(=O)c2ccccc2-c2ccccc2)c1)C(=O)O (racemic)  Peroxisome proliferator-activated receptor gamma (Homo sapiens, UniProt P37231)          EC50         nM               >           10000
8  CCC(Cc1ccc(OC)c(CNC(=O)c2ccc(OCCc3ccccc3)cc2)c1)C(=O)O (racemic)  Peroxisome proliferator-activated receptor gamma (Homo sapiens, UniProt P37231)          EC50         nM               =             780
9  CC[C@@H](Cc1ccc(OC)c(CNC(=O)c2ccc(Oc3ccc(Br)cc3)cc2)c1)C(=O)O  Peroxisome proliferator-activated receptor gamma (Homo sapiens, UniProt P37231)          EC50         nM               =             990

* * *

EXPERIMENTAL_TARGET: Peroxisome proliferator-activated receptor alpha (Homo sapiens)
Sequence (Q07869 whole entry): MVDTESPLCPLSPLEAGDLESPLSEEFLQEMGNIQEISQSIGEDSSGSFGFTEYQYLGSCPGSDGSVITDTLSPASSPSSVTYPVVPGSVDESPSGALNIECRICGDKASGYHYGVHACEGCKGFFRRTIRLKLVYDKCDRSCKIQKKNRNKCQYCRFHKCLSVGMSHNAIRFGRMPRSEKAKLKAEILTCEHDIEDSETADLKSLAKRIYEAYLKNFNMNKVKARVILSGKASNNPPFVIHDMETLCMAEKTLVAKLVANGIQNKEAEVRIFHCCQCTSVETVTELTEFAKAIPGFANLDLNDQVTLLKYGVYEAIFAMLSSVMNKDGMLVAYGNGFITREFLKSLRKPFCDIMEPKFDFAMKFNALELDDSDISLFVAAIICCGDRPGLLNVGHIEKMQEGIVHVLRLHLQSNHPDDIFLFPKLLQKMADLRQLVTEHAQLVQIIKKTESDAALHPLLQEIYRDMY
ASSAY_PROCEDURE: Agonist activity at Gal4-fussed PPARalpha expressed in human HEK293 cells by reporter gene assay
Each entry below carries its recorded log10 of EC50.
MEASURE_NAME: log10 of EC50 (log10 of the value in nM)

> print(dat)
                                    compound  endpoint.value
 1  CCC(Cc1ccc(OC)c(CNC(=O)c2cccc(-c3ccccc3)c2)c1)C(=O)O (racemic)            1.87
 2  CC[C@@H](Cc1ccc(OC)c(CNC(=O)c2ccc(Oc3ccc(F)cc3)cc2)c1)C(=O)O            0.70
 3  CCC(Cc1ccc(OC)c(CNC(=O)c2ccc(OCCc3ccccc3)cc2)c1)C(=O)O (racemic)            1.78
 4  CCC(Cc1ccc(OC)c(CNC(=O)c2ccccc2Oc2ccccc2)c1)C(=O)O (racemic)            3.56
 5  CCC(Cc1ccc(OC)c(CNC(=O)c2ccc(Oc3ccccc3)cc2)c1)C(=O)O (racemic)            0.94
 6  CCC(Cc1ccc(OC)c(CNC(=O)c2cccc(Oc3ccccc3)c2)c1)C(=O)O (racemic)            1.61
 7  CC[C@@H](Cc1ccc(OC)c(CNC(=O)c2ccc(Oc3ccc(Br)cc3)cc2)c1)C(=O)O            1.46
 8  CCC(Cc1ccc(OC)c(CNC(=O)c2ccc(-c3ccccc3)cc2)c1)C(=O)O (racemic)            0.88
 9  CCC(Cc1ccc(OC)c(CNC(=O)c2ccc(OC(F)(F)F)cc2)c1)C(=O)O (racemic)            1.08
10  CCC(Cc1ccc(OC)c(CNC(=O)c2ccc(OCc3ccccc3)cc2)c1)C(=O)O (racemic)            1.72
11  CCC(Cc1ccc(OC)c(CNC(=O)c2ccccc2-c2ccccc2)c1)C(=O)O (racemic)            3.56
12  CC[C@@H](Cc1ccc(OC)c(CNC(=O)c2ccc(Oc3ccc(Cl)cc3)cc2)c1)C(=O)O            1.18
